Target: T1, EsCas13d, nuclease-dead (Eubacterium siraeum, UniProt B0MS50, R295A;H300A;R849A;H854A)
T1 sequence: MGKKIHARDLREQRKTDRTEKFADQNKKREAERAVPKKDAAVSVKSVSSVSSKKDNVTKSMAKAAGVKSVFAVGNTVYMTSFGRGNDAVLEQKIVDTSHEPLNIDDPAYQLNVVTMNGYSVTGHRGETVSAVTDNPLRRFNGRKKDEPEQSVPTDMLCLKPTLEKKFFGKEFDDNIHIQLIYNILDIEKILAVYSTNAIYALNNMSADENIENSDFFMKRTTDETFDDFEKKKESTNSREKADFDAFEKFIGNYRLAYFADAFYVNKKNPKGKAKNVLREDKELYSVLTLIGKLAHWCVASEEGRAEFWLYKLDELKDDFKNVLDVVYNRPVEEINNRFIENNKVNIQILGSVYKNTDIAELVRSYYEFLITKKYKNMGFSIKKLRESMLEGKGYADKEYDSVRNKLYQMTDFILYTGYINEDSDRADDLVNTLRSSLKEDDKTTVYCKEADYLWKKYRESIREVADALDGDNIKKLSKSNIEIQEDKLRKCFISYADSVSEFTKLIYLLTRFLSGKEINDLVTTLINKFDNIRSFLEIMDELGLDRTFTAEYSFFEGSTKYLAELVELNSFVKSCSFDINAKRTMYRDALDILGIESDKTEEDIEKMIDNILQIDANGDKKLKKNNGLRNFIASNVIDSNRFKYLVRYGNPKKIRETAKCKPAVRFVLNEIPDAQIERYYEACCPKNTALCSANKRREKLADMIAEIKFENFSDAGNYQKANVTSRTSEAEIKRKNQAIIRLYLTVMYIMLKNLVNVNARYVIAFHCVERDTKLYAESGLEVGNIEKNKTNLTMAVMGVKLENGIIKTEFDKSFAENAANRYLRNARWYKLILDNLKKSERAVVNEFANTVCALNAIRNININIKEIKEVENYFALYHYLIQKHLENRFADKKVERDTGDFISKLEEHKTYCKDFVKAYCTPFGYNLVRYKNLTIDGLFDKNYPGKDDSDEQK
Test: crRNA (strand 1, pre-loaded); Mg2+; 40 mM Tris-HCl pH 7.5, 150 mM NaCl, 6 mM MgCl2, 1 mM DTT, 0.1% Tween-20, 0.2 mg/ml BSA; 25 C; 10 min per concentration, then washed
Conditions: tags: His6-TwinStrep-SUMO cleaved; N-terminal SNAP kept (SNAP-Surface 488); label: 3' end held by stalled T7 RNA polymerase
pKd: −log10 of the molar value.
Overview of reported pKd across a group of binders:

binder | pKd
target 2 MT 5'PFS UAG 3'PFS CCA (mixed) RNA 1: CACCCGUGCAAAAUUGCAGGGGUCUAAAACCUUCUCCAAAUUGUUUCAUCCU RNA 2: GGGAAUGGAUCCACAUCUACGAAUUCUAGAGGAUGAAACAAUUUGGAGAAGCCAAGAUCGGAAGAGCACACGU | 8.29
target 2 MT 5'PFS GCU 3'PFS ACG (mixed) RNA 1: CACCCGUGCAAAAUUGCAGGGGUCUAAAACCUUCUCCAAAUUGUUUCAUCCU RNA 2: GGGAAUGGAUCCACAUCUACGAAUUCGCUAGGAUGAAACAAUUUGGAGAAGACGAGAUCGGAAGAGCACACGU | 7.84
target 2 MT 5'PFS CGA 3'PFS ACG (mixed) RNA 1: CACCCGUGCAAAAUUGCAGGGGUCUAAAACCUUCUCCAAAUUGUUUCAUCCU RNA 2: GGGAAUGGAUCCACAUCUACGAAUUCCGAAGGAUGAAACAAUUUGGAGAAGACGAGAUCGGAAGAGCACACGU | 8.16
target 2 MT 5'PFS UUA 3'PFS UGU (mixed) RNA 1: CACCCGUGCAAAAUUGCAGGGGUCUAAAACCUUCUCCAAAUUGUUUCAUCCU RNA 2: GGGAAUGGAUCCACAUCUACGAAUUCUUAAGGAUGAAACAAUUUGGAGAAGUGUAGAUCGGAAGAGCACACGU | 7.64
